target: c-kit (Homo sapiens, UniProt P10721); construct: human Mo7e cells which endogenously express c-kit; endogenous in cells; host or cells: human Mo7e cells (promegakaryocytic leukemia line), stimulated with human recombinant SCF; test: Mo7e cell proliferation assay (SCF dependent proliferation); assay type: cell-based; conditions: Table 2; human Mo7e cells stimulated with SCF, 48 hours, CellTiter Glo; 1% FBS; read-out: c-kit (Mo7e)
Sequence (P10721 26-976): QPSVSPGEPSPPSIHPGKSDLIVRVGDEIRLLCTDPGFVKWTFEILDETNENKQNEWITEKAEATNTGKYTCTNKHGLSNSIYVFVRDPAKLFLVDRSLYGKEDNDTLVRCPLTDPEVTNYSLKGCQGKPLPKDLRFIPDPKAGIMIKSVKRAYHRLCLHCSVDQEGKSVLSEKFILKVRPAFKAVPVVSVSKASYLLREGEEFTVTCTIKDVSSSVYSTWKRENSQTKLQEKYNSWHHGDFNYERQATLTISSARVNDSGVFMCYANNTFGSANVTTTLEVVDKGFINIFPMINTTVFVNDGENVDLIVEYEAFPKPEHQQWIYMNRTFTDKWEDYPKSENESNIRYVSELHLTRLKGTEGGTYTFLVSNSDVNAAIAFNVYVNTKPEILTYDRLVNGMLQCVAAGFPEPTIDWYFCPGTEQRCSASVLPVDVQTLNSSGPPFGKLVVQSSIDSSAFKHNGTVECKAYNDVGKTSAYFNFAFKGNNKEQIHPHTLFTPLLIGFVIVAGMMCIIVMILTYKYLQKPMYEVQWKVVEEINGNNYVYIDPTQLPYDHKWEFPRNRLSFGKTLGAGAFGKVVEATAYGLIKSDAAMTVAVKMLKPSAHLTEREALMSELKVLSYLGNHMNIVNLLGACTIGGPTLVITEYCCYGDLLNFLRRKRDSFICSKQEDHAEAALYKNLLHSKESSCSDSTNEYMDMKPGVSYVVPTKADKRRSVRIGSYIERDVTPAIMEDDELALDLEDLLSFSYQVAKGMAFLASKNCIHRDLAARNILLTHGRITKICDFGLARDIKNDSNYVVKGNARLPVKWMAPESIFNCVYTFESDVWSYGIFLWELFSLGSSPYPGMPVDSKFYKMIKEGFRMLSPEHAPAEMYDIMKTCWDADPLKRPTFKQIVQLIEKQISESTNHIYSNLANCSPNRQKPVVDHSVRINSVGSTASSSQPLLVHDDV
observable: IC50 (nM)

Example entries begin here.
{"columns": ["compound", "study.system", "IC50 / nM"],
 "data": [
  ["Cc1ccc(-c2noc(CCC(=O)N3CCOCC3)n2)cc1NC(=O)c1cnc2ccccn12", "c-kit (Homo sapiens, UniProt P10721)", 426],
  ["Cc1ccc(-c2noc(CC3CN(S(C)(=O)=O)C3)n2)cc1NC(=O)c1cnc2ccccn12", "c-kit (Homo sapiens, UniProt P10721)", 476]
]}

[P] Cc1ccc(-c2noc(C[C@H]3CCN(C(=O)OC(C)(C)C)C3)n2)cc1NC(=O)c1cnc2ccccn12
[Q] Cc1ccc(-c2noc(C3CCCN3C(=O)OC(C)(C)C)n2)cc1NC(=O)c1cnc2ccccn12 (stereo not shown)
Could you please tell me which of these two has the higher IC50: P or Q ? Could you answer with the label of the item you picked? Q

###

target: c-kit (Homo sapiens, UniProt P10721); construct: human Mo7e cells which endogenously express c-kit; endogenous in cells; host or cells: human Mo7e cells (promegakaryocytic leukemia line), stimulated with human recombinant SCF; assay: Mo7e cell proliferation assay (SCF dependent proliferation); type: cell-based; conditions: Table 2; human Mo7e cells stimulated with SCF, 48 hours, CellTiter Glo; 1% FBS; read-out: c-kit (Mo7e)
pIC50: −log10 of the molar value.
observable: pIC50

Example entries begin here.
{"columns": ["compound", "pIC50"],
 "data": [
  ["Cc1nc(N2CC(c3nc(-c4ccc(C)c(NC(=O)c5cnc6ccccn56)c4)no3)C2)no1", 6.75],
  ["CC(=O)N1CCO[C@@H](c2nc(-c3ccc(C)c(NC(=O)c4cnc5ccccn45)c3)no2)C1", 6.29]
]}

[I] Cc1ccc(-c2noc(CN3CCOC3=O)n2)cc1NC(=O)c1cnc2ccccn12
[II] Cc1ccc(-c2noc(C3CCCCN3C)n2)cc1NC(=O)c1cnc2ccccn12 (stereo not shown)
Smaller pIC50 value? Options are I and II Could you answer with the label of the item you picked? I
(I: 6.24, II: 6.61)

###

molecular target: c-kit (Homo sapiens, UniProt P10721); construct: human Mo7e cells which endogenously express c-kit; endogenous in cells; host or cells: human Mo7e cells (promegakaryocytic leukemia line), stimulated with human recombinant SCF; experiment: Mo7e cell proliferation assay (SCF dependent proliferation); assay type: cell-based; settings: Table 2; human Mo7e cells stimulated with SCF, 48 hours, CellTiter Glo; 1% FBS; read-out: c-kit (Mo7e)
observable: IC50 (µM)

Example entries begin here.
{"columns": ["compound", "study.system", "IC50 / µM"],
 "data": [
  ["Cc1ccc(-c2noc(C3CN(S(=O)(=O)c4cn[nH]c4)C3)n2)cc1NC(=O)c1cnc2ccccn12", "c-kit (Homo sapiens, UniProt P10721)", 0.155],
  ["Cc1ccc(-c2nc(CCOC3CCN(Cc4ccccc4)CC3)no2)cc1NC(=O)c1cnc2ccccn12", "c-kit (Homo sapiens, UniProt P10721)", 0.198],
  ["Cc1ccc(-c2noc([C@@H]3CCCNC3)n2)cc1NC(=O)c1cnc2ccccn12", "c-kit (Homo sapiens, UniProt P10721)", 0.826],
  ["Cc1ccc(-c2noc(C(NC(=O)OC(C)(C)C)C3COC3)n2)cc1NC(=O)c1cnc2ccccn12 (stereo not drawn)", "c-kit (Homo sapiens, UniProt P10721)", 0.454],
  ["Cc1ccc(-c2noc(CN3CC(S(C)(=O)=O)C3)n2)cc1NC(=O)c1cnc2ccccn12", "c-kit (Homo sapiens, UniProt P10721)", 1.92]
]}

[a] Cc1ccc(-c2noc(CN3CC(CO)C3)n2)cc1NC(=O)c1cnc2ccccn12
[b] Cc1ccc(-c2noc(CN3CC(C#N)C3)n2)cc1NC(=O)c1cnc2ccc(-c3cnn(C)c3)cn12
[c] Cc1ccc(-c2noc(C3CCC(O)CO3)n2)cc1NC(=O)c1cnc2ccccn12 (stereo not drawn)
[d] Cc1ccc(-c2noc(C3CCN(C(=O)OC(C)(C)C)CC3)n2)cc1NC(=O)c1cnc2ccccn12
[e] Cc1ccc(-c2noc(C3CCNC3)n2)cc1NC(=O)c1cnc2ccccn12 (stereo not drawn)
Sort (5 compounds) by IC50: min first. Lab note: final answer is the ordered label list. b, c, a, d, e

[P] Cc1ccc(-c2noc(C3CCOCC3)n2)cc1NC(=O)c1cnc2ccccn12
[Q] Cc1ccc(-c2noc(C3CN(C(=O)OCCO)C3)n2)cc1NC(=O)c1cnc2ccccn12
Could you please tell me which of these two has the higher IC50: P or Q ? Could you answer with the label of the item you picked? Q
(Q: 0.718 µM, P: 0.286 µM)

[P] COC(=O)N1CC(c2nc(-c3ccc(C)c(NC(=O)c4cnc5ccccn45)c3C)no2)C1
[Q] Cc1ccc2ncc(C(=O)Nc3cc(-c4noc(COC5CN(C(=O)OC(C)(C)C)C5)n4)ccc3C)n2c1
[R] O=C(Nc1cc(-c2noc(CN3CCOCC3)n2)ccc1F)c1cnc2ccccn12
Rank the 3 compounds: largest IC50 first, smallest last. Lab note: final answer is the ordered label list. Q, P, R

[1] Cc1ccc(-c2noc(C3CN(S(=O)(=O)c4cnn(C)c4)C3)n2)cc1NC(=O)c1cnc2ccccn12
[2] COC1CN(Cc2nc(-c3ccc(C)c(NC(=O)c4cnc5ccccn45)c3)no2)C1
[3] Cc1ccc(-c2noc(C3CN(C(=O)N(C)C)C3)n2)cc1NC(=O)c1cnc2ccccn12
Sort (3 compounds) by IC50: min first. Lab note: final answer is the ordered label list. 1, 2, 3
(1: 0.173 µM, 2: 0.283 µM, 3: 0.831 µM)

[1] Cc1ccc(-c2noc(CN3CC(F)C3)n2)cc1NC(=O)c1cnc2ccccn12
[2] CC(=O)N1CC[C@H]1c1nc(-c2ccc(C)c(NC(=O)c3cnc4ccccn34)c2)no1
Smaller IC50 value? Options are 1 and 2 Could you answer with the label of the item you picked? 1
(1: 0.127 µM, 2: 0.738 µM)

[A] CCCCS(=O)(=O)N1CC(c2nc(-c3ccc(F)c(NC(=O)c4cnc5ccccn45)c3)no2)C1
[B] Cc1ccc(-c2noc(C3CN(S(=O)(=O)c4c[nH]cn4)C3)n2)cc1NC(=O)c1cnc2ccccn12
[C] Cc1ccc(-c2noc(CNC(=O)CC3CCOCC3)n2)cc1NC(=O)c1cnc2ccccn12
[D] Cc1ccc(-c2noc([C@H]3CCCN(C(=O)OC(C)(C)C)C3)n2)cc1NC(=O)c1cnc2ccccn12
[E] COCC(c1nc(-c2ccc(C)c(NC(=O)c3cnc4ccccn34)c2)no1)N1CCC(F)(F)C1 (stereo not drawn)
Sort (5 compounds) by IC50: min first. Lab note: final answer is the ordered label list. E, A, D, C, B

[1] Cc1ccc(-c2noc(C3CN(S(=O)(=O)c4cccnc4)C3)n2)cc1NC(=O)c1cnc2ccccn12
[2] Cc1ccc(-c2noc(CNC(=O)CN3CCOCC3)n2)cc1NC(=O)c1cnc2ccccn12
Smaller IC50 value? Options are 1 and 2 Could you answer with the label of the item you picked? 1
(1: 0.153 µM, 2: 0.963 µM)

[P] COC(=O)CCS(=O)(=O)N1CC(c2nc(-c3ccc(C)c(NC(=O)c4cnc5ccccn45)c3)no2)C1
[Q] Cc1ccc(-c2noc(C3CN(S(=O)(=O)c4ccn(C)n4)C3)n2)cc1NC(=O)c1cnc2ccccn12
[R] Cc1ccc(-c2nc(N3CC4(COC4)C3)no2)cc1NC(=O)c1cnc2ccccn12
[S] COC(=O)N1CC[C@H](Cc2nc(-c3ccc(C)c(NC(=O)c4cnc5ccccn45)c3)no2)C1
Rank the 4 compounds: largest IC50 first, smallest last. Lab note: final answer is the ordered label list. R, Q, S, P

[a] COC(=O)N1CC(c2nc(-c3ccc(C)c(NC(=O)c4cnc5cc(N6CCOC6=O)ccn45)c3)no2)C1
[b] Cc1ccc(-c2noc(C3CN(C(=O)OCC(F)F)C3)n2)cc1NC(=O)c1cnc2ccccn12
Smaller IC50 value? Options are a and b Could you answer with the label of the item you picked? a

###

target: c-kit (Homo sapiens, UniProt P10721); construct: human Mo7e cells which endogenously express c-kit; endogenous in cells; host or cells: human Mo7e cells (promegakaryocytic leukemia line), stimulated with human recombinant SCF; test: Mo7e cell proliferation assay (SCF dependent proliferation); format: cell-based; details: c-kit (Mo7e) μM, Table 1; human Mo7e cells stimulated with SCF, 48 hours, CellTiter Glo; 1% FBS
observable: IC50 (µM)
Give the value, in units of µM, as a plain number.

{"columns": ["compound", "IC50 [µM]"],
 "data": [
  ["Cc1ccc(-c2noc(C3CCC(F)(F)CO3)n2)cc1NC(=O)c1cnc2ccccn12 (centres unmarked)", 0.023]
]}

Now examine the next entry.
Please look at this compound and report its IC50: Cc1ccc(-c2noc([C@@H]3CCC(F)(F)CO3)n2)cc1NC(=O)c1cnc2ccccn12 0.023
